System: Plasmodium falciparum
Assay: Antimalarial activity against chloroquine-,pyrimethamine-resistant Plasmodium falciparum W2 assessed as inhibition of [3H]hypoxanthine incorporation after 96 hrs by microtiter plate scintillation counting
Format: functional, organism-based
property label: IC50 (nM)
Answer in nM, number only, no unit symbol.

Need IC50, item CC[C@H]1OC(=O)[C@H](C)[C@@H](O[C@H]2C[C@@](C)(OC)[C@@H](O)[C@H](C)O2)[C@H](C)[C@@H](O[C@@H]2O[C@H](C)C[C@H](N(C)C)[C@H]2O)[C@](C)(O)C[C@@H](C)CN(CCCNC(=O)Nc2cccc(F)c2)[C@H](C)[C@@H](O)[C@]1(C)O
285

Further, for CC[C@H]1OC(=O)[C@H](C)[C@@H](O[C@H]2C[C@@](C)(OC)[C@@H](O)[C@H](C)O2)[C@H](C)[C@@H](O[C@@H]2O[C@H](C)C[C@H](N(C)C)[C@H]2O)[C@](C)(O)C[C@@H](C)CN(CCCNC(=S)Nc2c(F)cccc2F)[C@H](C)[C@@H](O)[C@]1(C)O ?
86.3

###

Test system: Plasmodium falciparum
Assay: Antimalarial activity against chloroquine-,pyrimethamine-resistant Plasmodium falciparum W2 assessed as inhibition of [3H]hypoxanthine incorporation after 96 hrs by microtiter plate scintillation counting
Type: functional, organism-based
property label: IC50 (nM)
Answer in nM, number only, no unit symbol.

Need IC50, item CCCCNC(=O)NCCCN1C[C@H](C)C[C@@](C)(O)[C@H](O[C@@H]2O[C@H](C)C[C@H](N(C)C)[C@H]2O)[C@@H](C)[C@H](O[C@H]2C[C@@](C)(OC)[C@@H](O)[C@H](C)O2)[C@@H](C)C(=O)O[C@H](CC)[C@@](C)(O)[C@H](O)[C@H]1C
370

Further, for CC[C@H]1OC(=O)[C@H](C)[C@@H](O[C@H]2C[C@@](C)(OC)[C@@H](O)[C@H](C)O2)[C@H](C)[C@@H](O[C@@H]2O[C@H](C)C[C@H](N(C)C)[C@H]2O)[C@](C)(O)C[C@@H](C)CN(CCCNC(=O)Nc2ccc(OC)c(OC3CCCC3)c2)[C@H](C)[C@@H](O)[C@]1(C)O ?
201

Further, for CC[C@H]1OC(=O)[C@H](C)[C@@H](O[C@H]2C[C@@](C)(OC)[C@@H](O)[C@H](C)O2)[C@H](C)[C@@H](O[C@@H]2O[C@H](C)C[C@H](N(C)C)[C@H]2O)[C@](C)(O)C[C@@H](C)CN(CCCNC(=O)Nc2ccc3c(c2)OCO3)[C@H](C)[C@@H](O)[C@]1(C)O ?
111

Further, for CC[C@H]1OC(=O)[C@H](C)[C@@H](O[C@H]2C[C@@](C)(OC)[C@@H](O)[C@H](C)O2)[C@H](C)[C@@H](O[C@@H]2O[C@H](C)C[C@H](N(C)C)[C@H]2O)[C@](C)(O)C[C@@H](C)CN(CCCNC(=S)Nc2ccc(S(=O)(=O)N3CCCCC3)cc2)[C@H](C)[C@@H](O)[C@]1(C)O ?
53

Further, for CC[C@H]1OC(=O)[C@H](C)[C@@H](O[C@H]2C[C@@](C)(OC)[C@@H](O)[C@H](C)O2)[C@H](C)[C@@H](O[C@@H]2O[C@H](C)C[C@H](N(C)C)[C@H]2O)[C@](C)(O)C[C@@H](C)CN(CCCNC(=S)Nc2cccc3nsnc23)[C@H](C)[C@@H](O)[C@]1(C)O ?
88.2

Further, for CC[C@H]1OC(=O)[C@H](C)[C@@H](O[C@H]2C[C@@](C)(OC)[C@@H](O)[C@H](C)O2)[C@H](C)[C@@H](O[C@@H]2O[C@H](C)C[C@H](N(C)C)[C@H]2O)[C@](C)(O)C[C@@H](C)CN(CCCNC(=O)NC2CCN(C(=O)OCc3ccccc3)CC2)[C@H](C)[C@@H](O)[C@]1(C)O ?
276

Further, for CC[C@H]1OC(=O)[C@H](C)[C@@H](O[C@H]2C[C@@](C)(OC)[C@@H](O)[C@H](C)O2)[C@H](C)[C@@H](O[C@@H]2O[C@H](C)C[C@H](N(C)C)[C@H]2O)[C@](C)(O)C[C@@H](C)CN(CCCNC(=S)NCC(C)C)[C@H](C)[C@@H](O)[C@]1(C)O ?
495

###

Test system: Plasmodium falciparum
Assay: Antimalarial activity against chloroquine-sensitive Plasmodium falciparum D6 assessed as inhibition of [3H]hypoxanthine incorporation after 96 hrs by microtiter plate scintillation counting
Assay type: functional, organism-based
pIC50: −log10 of the molar value.
Tick Y if pIC50 is 7 or greater. Tick N if pIC50 is less than 7.

hey, is pIC50 for this one >= 7? CC[C@H]1OC(=O)[C@H](C)[C@@H](O[C@H]2C[C@@](C)(OC)[C@@H](O)[C@H](C)O2)[C@H](C)[C@@H](O[C@@H]2O[C@H](C)C[C@H](N(C)C)[C@H]2O)[C@](C)(O)C[C@@H](C)CN(CCCNC(=S)Nc2ccc(S(=O)(=O)N3CCCCC3)cc2)[C@H](C)[C@@H](O)[C@]1(C)O
N

Further, for CC[C@H]1OC(=O)[C@H](C)[C@@H](O[C@H]2C[C@@](C)(OC)[C@@H](O)[C@H](C)O2)[C@H](C)[C@@H](O[C@@H]2O[C@H](C)C[C@H](N(C)C)[C@H]2O)[C@](C)(O)C[C@@H](C)CN(CCCNC(=O)Nc2ccc(OC)cc2)[C@H](C)[C@@H](O)[C@]1(C)O ?
N

Further, for CC[C@H]1OC(=O)[C@H](C)[C@@H](O[C@H]2C[C@@](C)(OC)[C@@H](O)[C@H](C)O2)[C@H](C)[C@@H](O[C@@H]2O[C@H](C)C[C@H](N(C)C)[C@H]2O)[C@](C)(O)C[C@@H](C)CN(CCCNC(=O)NC(C)(C)C)[C@H](C)[C@@H](O)[C@]1(C)O ?
N

Further, for CC[C@H]1OC(=O)[C@H](C)[C@@H](O[C@H]2C[C@@](C)(OC)[C@@H](O)[C@H](C)O2)[C@H](C)[C@@H](O[C@@H]2O[C@H](C)C[C@H](N(C)C)[C@H]2O)[C@](C)(O)C[C@@H](C)CN(CCCNC(=S)Nc2cccc(-c3ccccc3)c2OC)[C@H](C)[C@@H](O)[C@]1(C)O ?
Y

Further, for CC[C@H]1OC(=O)[C@H](C)[C@@H](O[C@H]2C[C@@](C)(OC)[C@@H](O)[C@H](C)O2)[C@H](C)[C@@H](O[C@@H]2O[C@H](C)C[C@H](N(C)C)[C@H]2O)[C@](C)(O)C[C@@H](C)CN(CCCNC(=O)NCCc2cccs2)[C@H](C)[C@@H](O)[C@]1(C)O ?
N

Further, for CC[C@H]1OC(=O)[C@H](C)[C@@H](O[C@H]2C[C@@](C)(OC)[C@@H](O)[C@H](C)O2)[C@H](C)[C@@H](O[C@@H]2O[C@H](C)C[C@H](N(C)C)[C@H]2O)[C@](C)(O)C[C@@H](C)CN(CCCNC(=O)Nc2cccc3nsnc23)[C@H](C)[C@@H](O)[C@]1(C)O ?
N

Further, for CC[C@H]1OC(=O)[C@H](C)[C@@H](O[C@H]2C[C@@](C)(OC)[C@@H](O)[C@H](C)O2)[C@H](C)[C@@H](O[C@@H]2O[C@H](C)C[C@H](N(C)C)[C@H]2O)[C@](C)(O)C[C@@H](C)CN(CCCNC(=S)NCc2ccco2)[C@H](C)[C@@H](O)[C@]1(C)O ?
N

Further, for CC[C@H]1OC(=O)[C@H](C)[C@@H](O[C@H]2C[C@@](C)(OC)[C@@H](O)[C@H](C)O2)[C@H](C)[C@@H](O[C@@H]2O[C@H](C)C[C@H](N(C)C)[C@H]2O)[C@](C)(O)C[C@@H](C)CN(CCCNC(=S)NC2CC2)[C@H](C)[C@@H](O)[C@]1(C)O ?
N

Further, for CC[C@H]1OC(=O)[C@H](C)[C@@H](O[C@H]2C[C@@](C)(OC)[C@@H](O)[C@H](C)O2)[C@H](C)[C@@H](O[C@@H]2O[C@H](C)C[C@H](N(C)C)[C@H]2O)[C@](C)(O)C[C@@H](C)CN(CCCNC(=S)Nc2ccc(Cl)c(C(F)(F)F)c2)[C@H](C)[C@@H](O)[C@]1(C)O ?
Y

Further, for CC[C@H]1OC(=O)[C@H](C)[C@@H](O[C@H]2C[C@@](C)(OC)[C@@H](O)[C@H](C)O2)[C@H](C)[C@@H](O[C@@H]2O[C@H](C)C[C@H](N(C)C)[C@H]2O)[C@](C)(O)C[C@@H](C)CN(CCCNC(=S)Nc2ccc(N(C)C)c3ccccc23)[C@H](C)[C@@H](O)[C@]1(C)O ?
N

Further, for CCc1ccccc1NC(=S)NCCCN1C[C@H](C)C[C@@](C)(O)[C@H](O[C@@H]2O[C@H](C)C[C@H](N(C)C)[C@H]2O)[C@@H](C)[C@H](O[C@H]2C[C@@](C)(OC)[C@@H](O)[C@H](C)O2)[C@@H](C)C(=O)O[C@H](CC)[C@@](C)(O)[C@H](O)[C@H]1C ?
N

Further, for CC[C@H]1OC(=O)[C@H](C)[C@@H](O[C@H]2C[C@@](C)(OC)[C@@H](O)[C@H](C)O2)[C@H](C)[C@@H](O[C@@H]2O[C@H](C)C[C@H](N(C)C)[C@H]2O)[C@](C)(O)C[C@@H](C)CN(CCCNC(=O)NCc2ccco2)[C@H](C)[C@@H](O)[C@]1(C)O ?
N
